MEASUREMENT_TARGET: recombinant full-length WRN protein (1-1432) (Homo sapiens, UniProt Q14191)
Construct: recombinant full-length WRN protein (1-1432)
Sequence (Q14191 whole entry): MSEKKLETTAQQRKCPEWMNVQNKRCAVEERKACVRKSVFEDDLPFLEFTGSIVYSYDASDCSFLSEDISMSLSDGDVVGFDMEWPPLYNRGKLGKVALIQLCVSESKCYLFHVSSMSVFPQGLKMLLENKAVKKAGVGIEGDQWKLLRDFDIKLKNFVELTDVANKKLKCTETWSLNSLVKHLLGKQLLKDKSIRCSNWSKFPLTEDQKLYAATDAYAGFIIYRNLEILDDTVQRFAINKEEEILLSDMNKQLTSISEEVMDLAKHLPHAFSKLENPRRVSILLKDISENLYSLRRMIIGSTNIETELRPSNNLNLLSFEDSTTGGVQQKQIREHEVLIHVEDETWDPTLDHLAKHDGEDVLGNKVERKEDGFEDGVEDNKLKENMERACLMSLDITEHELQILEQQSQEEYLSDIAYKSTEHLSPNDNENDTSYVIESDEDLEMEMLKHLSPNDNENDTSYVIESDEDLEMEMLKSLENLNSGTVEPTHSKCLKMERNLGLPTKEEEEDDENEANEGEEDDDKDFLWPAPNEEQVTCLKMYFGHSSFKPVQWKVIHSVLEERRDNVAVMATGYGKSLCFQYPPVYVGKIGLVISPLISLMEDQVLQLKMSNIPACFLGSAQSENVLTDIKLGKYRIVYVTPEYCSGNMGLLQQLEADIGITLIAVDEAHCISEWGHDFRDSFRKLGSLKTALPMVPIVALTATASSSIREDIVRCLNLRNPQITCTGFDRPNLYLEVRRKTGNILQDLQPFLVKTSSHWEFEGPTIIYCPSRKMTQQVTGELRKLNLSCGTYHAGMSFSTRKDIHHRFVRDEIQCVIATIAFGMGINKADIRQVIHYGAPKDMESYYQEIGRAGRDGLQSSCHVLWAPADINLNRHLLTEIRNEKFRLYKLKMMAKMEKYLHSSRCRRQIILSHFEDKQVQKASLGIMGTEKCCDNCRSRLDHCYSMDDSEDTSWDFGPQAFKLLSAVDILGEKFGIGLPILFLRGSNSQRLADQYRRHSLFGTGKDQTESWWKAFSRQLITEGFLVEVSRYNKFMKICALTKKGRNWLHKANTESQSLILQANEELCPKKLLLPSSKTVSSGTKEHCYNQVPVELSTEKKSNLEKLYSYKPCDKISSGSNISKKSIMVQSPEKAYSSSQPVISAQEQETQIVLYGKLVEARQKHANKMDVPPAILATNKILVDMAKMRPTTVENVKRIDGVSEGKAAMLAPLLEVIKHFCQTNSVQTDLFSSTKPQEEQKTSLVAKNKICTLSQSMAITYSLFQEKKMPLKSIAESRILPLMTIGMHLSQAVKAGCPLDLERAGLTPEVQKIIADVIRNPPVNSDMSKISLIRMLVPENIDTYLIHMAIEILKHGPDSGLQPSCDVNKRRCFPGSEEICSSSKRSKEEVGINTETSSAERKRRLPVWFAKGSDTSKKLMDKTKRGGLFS
MEASUREMENT_DESCRIPTION: WRN unwinding activity, fluorogenic 384-well assay (Example A)
Type: biochemical
PARTICULARS: WRN unwinding activity, 4 hr; Table 2; read-out: 4 hr UNW pIC50 (converted)
PROPERTY_NAME: IC50 (µM)

[2H]C([2H])([2H])O[C@@H]1C[C@H](C(=O)Nc2ccc(C(F)(F)F)cc2F)[C@@H](C(=O)O)[C@H](c2ccc(N(C)S(=O)(=O)c3ccc4c(c3)nc(C)n4C)cc2)C1 (relative stereo) :: 0.00158
Cc1nc2cc(S(=O)(=O)N(C)c3ccc([C@H]4CCC[C@@H](C(=O)Nc5ccc(C(F)(F)F)cc5F)[C@@H]4C(=O)O)c(F)c3)ccc2n1C (single isomer, unassigned) [Example 375] :: 0.1
Cc1nc2cc(S(=O)(=O)N(C)c3ccc([C@H]4C[C@@H](Oc5ccccc5)C[C@@H](C(=O)Nc5ccc(C(F)(F)F)cc5F)[C@@H]4C(=O)O)cc3)ccc2n1C (single isomer, unassigned) :: 0.01
Cc1nc2cc(S(=O)(=O)N(C)c3ccc([C@@H]4C[C@H](N5CCC[C@@H](F)C5)C[C@H](C(=O)Nc5ccc(C(F)(F)F)cc5F)[C@H]4C(=O)O)cc3)ccc2n1C (stereo in doubt) :: 0.398

P: Cc1nc2cc(S(=O)(=O)N(C)c3ccc([C@H]4C[C@@H](N5CCC[C@@H](F)C5)C[C@@H](C(=O)Nc5ccc(C(F)(F)F)cc5F)[C@@H]4C(=O)O)cc3)ccc2n1C (single isomer, unassigned) [Example 376]
Q: Cc1nc2cc(S(=O)(=O)N(C)c3ccc([C@H]4CCC[C@@H](C(=O)Nc5ccc(C(F)(F)F)cc5F)[C@@H]4C(=O)O)cc3)cnc2n1C
R: Cc1nc2cc(S(=O)(=O)N(C)c3ccc([C@H]4CCC[C@@H](C(=O)Nc5ccc(C(C)C)cc5)[C@H]4C(=O)O)cc3)ccc2n1C (single isomer, unassigned) [Example 76]
S: Cc1nc2cc(S(=O)(=O)N(C)c3ccc([C@H]4CCC[C@@H](CNc5ccc(C(C)C)cc5)[C@@H]4C(=O)O)cc3)ccc2n1C (racemic)
Let's sort these by IC50, smallest first. Go ahead? Kindly provide the labels arranged according to the requested ordering. P, Q, S, R
